For each entry below, report its inhibition value.
# assayed_target: Serine/threonine-protein phosphatase PP1-alpha catalytic subunit (Homo sapiens)
# measurement_notes: inhibition of human PP1 catalytic subunit – biochemical, fluorescence, OMFP substrate, single point, counter-screen for PP5 inhibitor project, primary screen (AID 2235)
# experimental_conditions: purified PP1alpha, at 6.7 µM, hits give high values
The whole screen tested about 320,000 compounds, of which about 2,800 (0.88%) were called active. The list comes from a sample in which actives are over-represented; it also holds close analogues and randomly drawn compounds.
One number for each entry, in %.

Report its inhibition with Serine/threonine-protein phosphatase PP1-alpha catalytic subunit (Homo sapiens) as the test system: `O=C(c1ccco1)N1CCN(C(=S)Nc2cc(F)cc(F)c2)CC1`
-1.12

Report its inhibition with Serine/threonine-protein phosphatase PP1-alpha catalytic subunit (Homo sapiens) as the test system: `COc1cc(-c2nn3c(-c4cccc(C)c4)nnc3s2)cc(OC)c1OC`
7.7

Report its inhibition with Serine/threonine-protein phosphatase PP1-alpha catalytic subunit (Homo sapiens) as the test system: `C#CCOCCOCCOCCNc1nc(N2CCN(C(=O)[C@H](C(C)C)n3cc(CCO)nn3)CC2)nc(N2CCN(C(=O)[C@H]([C@@H](C)CC)n3cc(CCCN=C(N)N)nn3)CC2)n1`
0.22

Report its inhibition with Serine/threonine-protein phosphatase PP1-alpha catalytic subunit (Homo sapiens) as the test system: `Cc1ccc(-n2nc3ccc(NC(=O)/C=C/c4ccco4)cc3n2)cc1C`
19.2

Report its inhibition with Serine/threonine-protein phosphatase PP1-alpha catalytic subunit (Homo sapiens) as the test system: C#CCOCCOCCOCCNc1nc(N2CCN(C(=O)[C@H](CCCCN)n3cc(CCC(=O)O)nn3)CC2)nc(N2CCN(C(=O)[C@H](CCCCN)n3cc(CC(C)O)nn3)CC2)n1 (some centres undefined)
5.96

List inhibition for every entry below, keeping the order given.
1. CN1C(=O)/C(=C/c2ccco2)SC1=Nc1cccc(C(=O)O)c1
2. O=C(OCC1O[C@@H](OC(=O)c2cc(O)c(O)c(O)c2)[C@@H](OC(=O)c2cc(O)c(O)c(O)c2)[C@@H](OC(=O)c2cc(O)c(O)c(O)c2)[C@@H]1OC(=O)c1cc(O)c(O)c(O)c1)c1cc(O)c(O)c(O)c1 (some centres undefined)
3. c1ccc(-c2cc(-c3nnc4sc(-c5ccccn5)nn34)[nH]n2)cc1
4. Cc1cc(C)c(S(=O)(=O)NCCCN2CCOCC2)cc1Br
5. Cc1ccc(N2NC(=O)/C(=C/C=C/c3ccco3)C2=O)cc1C

1: -2.67; 2: 82.4; 3: 14; 4: -3.53; 5: 1.04

// data source = PubChem BioAssay AID2235
